FYI, the data here is from PubChem BioAssay AID1626.

assay-comment: M. tuberculosis H37Rv growth inhibitors, H37Rv strain (AID 1626);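 further: bacteria incubated seven days before Alamar blue readout; 0% = bacteria only wells and 100% = bacteria with antibiotic wells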
experimental-setup: active compounds read high, concentration not given here
Out of some 220,000 compounds screened, about 2,000 (0.91%) were called active. Another 2% or so got no clear call; they are omitted. A selection follows. Potency and affinity values are given separately.
Catalogue of inhibition readings, one per entry.
assay-endpoint: inhibition (%)

smiles_repr=CCCCNc1nc(-c2ccccc2)nc(-n2ccnc2)n1 assay_endpoint=inhibition readout_number=1.24
smiles_repr=C#CCSc1cc(C(F)(F)F)nc(-c2ccccn2)n1 assay_endpoint=inhibition readout_number=5.1
smiles_repr=CC(=O)Nc1ccc(C(=O)/C=C/c2ccco2)cc1 assay_endpoint=inhibition readout_number=-0.44
smiles_repr=CN(C)c1cc(C(F)(F)F)nc(-c2ccccn2)n1 assay_endpoint=inhibition readout_number=3.02
smiles_repr=O=C(Nc1ccc2c(c1)OCCO2)c1cccc(S(=O)(=O)N2CCOCC2)c1 assay_endpoint=inhibition readout_number=2.68
